target: UniProt:P42336; conditions: read-out: IC50 PI3K
Sequence (P42336 whole entry, looked up): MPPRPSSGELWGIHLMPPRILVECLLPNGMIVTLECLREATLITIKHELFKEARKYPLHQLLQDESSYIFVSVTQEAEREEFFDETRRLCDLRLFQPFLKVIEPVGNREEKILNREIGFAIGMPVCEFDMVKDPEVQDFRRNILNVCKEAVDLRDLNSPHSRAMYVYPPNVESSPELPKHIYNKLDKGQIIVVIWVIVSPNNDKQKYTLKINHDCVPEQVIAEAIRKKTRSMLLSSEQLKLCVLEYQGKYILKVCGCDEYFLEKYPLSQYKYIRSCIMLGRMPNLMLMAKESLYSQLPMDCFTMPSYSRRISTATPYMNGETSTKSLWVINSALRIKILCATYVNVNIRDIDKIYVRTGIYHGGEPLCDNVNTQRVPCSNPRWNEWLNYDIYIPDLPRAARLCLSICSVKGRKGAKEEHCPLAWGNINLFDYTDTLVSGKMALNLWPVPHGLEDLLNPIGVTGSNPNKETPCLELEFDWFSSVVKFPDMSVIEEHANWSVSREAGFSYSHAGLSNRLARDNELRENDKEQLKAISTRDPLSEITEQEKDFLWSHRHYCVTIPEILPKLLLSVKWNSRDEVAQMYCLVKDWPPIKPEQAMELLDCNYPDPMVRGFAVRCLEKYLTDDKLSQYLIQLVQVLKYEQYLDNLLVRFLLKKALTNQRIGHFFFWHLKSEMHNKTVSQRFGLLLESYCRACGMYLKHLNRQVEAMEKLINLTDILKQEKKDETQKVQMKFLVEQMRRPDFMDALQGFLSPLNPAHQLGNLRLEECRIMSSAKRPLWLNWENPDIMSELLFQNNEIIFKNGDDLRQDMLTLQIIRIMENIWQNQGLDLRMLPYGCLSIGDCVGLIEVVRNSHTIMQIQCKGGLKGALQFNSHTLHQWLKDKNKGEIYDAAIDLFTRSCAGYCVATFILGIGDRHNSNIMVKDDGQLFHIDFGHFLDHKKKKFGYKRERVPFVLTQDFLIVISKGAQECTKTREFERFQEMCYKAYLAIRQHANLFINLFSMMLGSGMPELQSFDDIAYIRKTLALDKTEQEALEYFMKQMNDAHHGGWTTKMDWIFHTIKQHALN
measure_name: IC50 (nM)

INSERT INTO results (compound, unit_of_measurement, numeric_result) VALUES
  ('CCc1ncnc(-c2cc(F)c(C(=O)N3CCN(C4COC4)CC3)c(F)c2)c1C#Cc1ccc(N)nc1 [Example E-275]', 'nM', 141),
  ('CCc1ncnc(-c2ccc(C(=O)NCC3CCCN(C)C3)c(F)c2)c1C#Cc1ccc(N)nc1 [Example D-74]', 'nM', 630),
  ('CCc1ncnc(-c2cccc(C(=O)N(CC)CC)c2)c1C#Cc1ccc(N)nc1 [Example C-44]', 'nM', 188),
  ('Cc1ccc(-c2ncnc(C)c2C#Cc2ccc(N)nc2)cn1 [Example C-24]', 'nM', 59),
  ('CCc1ncnc(-c2ccc(C(=O)N3CCN(CCOCCO)CC3)c(Cl)c2)c1C#Cc1ccc(N)nc1 [Example E-318]', 'nM', 107),
  ('CCc1ncnc(-c2ccc(C(=O)NC3CCCN(C)C3)c(Cl)c2)c1C#Cc1ccc(N)nc1 (centres unmarked) [Example E-22]', 'nM', 510),
  ('CCc1ncnc(-c2ccc(C(=O)N3CCC(O)(C(C)C)CC3)c(F)c2)c1C#Cc1ccc(N)nc1 [Example D-124]', 'nM', 228),
  ('CCc1ncnc(-c2ccc(C(=O)N(C)CC(C)(C)O)c(F)c2)c1C#Cc1ccc(N)nc1 [Example D-81]', 'nM', 84);

The origin of these recorded values is patent US8633183B2.
